Hey, just so you know, these numbers are from PubChem BioAssay (NCI).

system: HCT-116 colon; assay: NCI tumour cell line growth inhibition, 48 h
Readout type: TGI

Please review the following examples before continuing.
>  <Molecule>
COc1ccccc1Nc1nc2ccccc2c2occc12

>  <TGI>
> 50 µM

$$$$
>  <Molecule>
CC(=O)C(N=NC1CCC(S(=O)(=O)NB2N=CS2)CC1)C(=O)Nc1ccccc1C (configuration not stated)

>  <TGI>
26.3 µM

$$$$
>  <Molecule>
O=C([CH-]C(=O)c1ccccc1)c1ccccc1.[CH3-].[CH3-].[CH3-].[Sn+4]

>  <TGI>
19.1 µM

$$$$
>  <Molecule>
COc1ccc2c(c1)C(=O)c1c-2n(CCCN=[N+]=[N-])c(=O)c2cc(N)ccc12

>  <TGI>
> 100 µM

$$$$
>  <Molecule>
Clc1ccc(-c2nc(C(Cl)Cl)nc3cc(-c4ccccc4)nn23)cc1

>  <TGI>
> 50 µM

$$$$
>  <Molecule>
NCCn1cnc2nc(NC(=O)c3ccccc3)[nH]c(=O)c21

>  <TGI>
> 100 µM

$$$$
>  <Molecule>
CC(C)C[C@H]1C(=O)N2CCC[C@H]2[C@]2(O)O[C@](NC(=O)[C@@H]3C=C4c5cccc6[nH]c(Br)c(c56)C[C@H]4N(C)C3)(C(C)C)C(=O)N12

>  <TGI>
> 100 µM

$$$$
>  <Molecule>
CCOc1ccc2c(c1)C(=O)c1c-2n(CCCN)c(=O)c2cc([N+](=O)[O-])ccc12

>  <TGI>
0.543 µM

$$$$

Inquiry: Give TGI (HCT-116 colon) of the following molecule: "COc1ccc2cc(/C=N\NC(=O)Nc3ccc([N+](=O)[O-])cc3)ccc2c1"
Reply text: 16.3 µM

Inquiry: Give TGI (HCT-116 colon) of the following molecule: "O=C(O)c1nnsc1-c1csnn1"
Reply text: > 100 µM

Inquiry: Give TGI (HCT-116 colon) of the following molecule: "CNC(=O)OCc1nc(N=[N+]=[N-])n(C)c1COC(=O)NC"
Reply text: > 100 µM

Inquiry: Give TGI (HCT-116 colon) of the following molecule: "CCCC(CCC)Oc1ccc(CCCC2=C(O)c3ccccc3C(=O)C2=O)cc1"
Reply text: 13.6 µM

Inquiry: Give TGI (HCT-116 colon) of the following molecule: "O=C(Nc1nc(-c2ccccc2)cs1)c1cc(O)c(O)c(O)c1"
Reply text: 16.5 µM

----------
tested on: UACC-257 melanoma; assay: NCI tumour cell line growth inhibition, 48 h
Readout type: TGI

Please review the following examples before continuing.
>  <Molecule>
Cc1ccc(S(=O)(=O)NC(=O)NCC(N)=O)cc1

>  <TGI>
> 100 µM

$$$$
>  <Molecule>
CCCC(CCC)Oc1ccc(CCCC2=C(O)c3ccccc3C(=O)C2=O)cc1

>  <TGI>
43.1 µM

$$$$
>  <Molecule>
C=C[Si](C)(C)COC(=O)/C(C#N)=C/C=C/c1ccccc1

>  <TGI>
> 100 µM

$$$$
>  <Molecule>
COc1ccc(C2CC(c3cccc(OC)c3)=NN2C(=O)c2cc(OC)c(OC)c(OC)c2)cc1 (centres undefined)

>  <TGI>
> 100 µM

$$$$

Inquiry: Give its TGI value. Item: CNC1=CC(=O)C2=C(C1=O)C1C3=C(C(=O)C(Br)=C(OC)C3=O)C2c2ccccc21 (centres undefined)
Reply text: > 50 µM

Inquiry: Give its TGI value. Item: "CCCCCCCCc1ccc(CCC(N)(CO)CO)cc1"
Reply text: 5.01 µM

Inquiry: Give its TGI value. Item: "O=C1/C(=C/c2ccc(OC(=O)c3ccc(Cl)cc3)cc2)CCC/C1=C\c1ccc(OC(=O)c2ccc(Cl)cc2)cc1"
Reply text: > 100 µM

Inquiry: Give its TGI value. Item: "Cc1ccc(S(=O)(=O)N[C@@H](Cc2ccccc2)C(=O)CCl)cc1"
Reply text: > 100 µM

Inquiry: Give its TGI value. Item: "Nc1ccc(S(=O)(=O)NCCS(=O)(=O)O)cc1"
Reply text: > 100 µM

Inquiry: Give its TGI value. Item: "O=C(/C=N/O)Nc1ccc(Cl)c(I)c1"
Reply text: > 100 µM

Inquiry: Give its TGI value. Item: "O=C1Nc2ccccc2/C1=N/N1C(=O)/C(=C/c2ccccc2S)N=C1c1ccccc1"
Reply text: > 100 µM

Inquiry: Give its TGI value. Item: "O=C(O)c1cc2cc(O)ccc2[nH]1"
Reply text: > 100 µM

Inquiry: Give its TGI value. Item: "O=C1COc2cc3c(cc2N1)SCCC(=O)N3"
Reply text: > 100 µM

Inquiry: Give its TGI value. Item: CCOC(=O)C1=C(C)N(NC(=O)OC)C2(N)N(NC(=O)OC)C(C)=C(C(=O)OCC)C12C#N (centres undefined)
Reply text: > 100 µM

Inquiry: Give its TGI value. Item: O=c1oc2c(cc1-c1ccccc1)C(O)Oc1ccccc1-2 (centres undefined)
Reply text: 35.4 µM

Inquiry: Give its TGI value. Item: "CCOc1ccc(N=Nc2ccc(-c3ccc(N=Nc4c(O)ccc5cc(S(=O)(=O)O)cc(S(=O)(=O)O)c45)cc3)cc2)cc1"
Reply text: > 100 µM

Inquiry: Give its TGI value. Item: C[CH2][Ge]([CH2]C)([CH2]C)[O]C(=O)C([O][Ge]([CH2]C)([CH2]C)[CH2]C)c1ccccc1 (centres undefined)
Reply text: 58.4 µM

Inquiry: Give its TGI value. Item: CN1C(=O)C(C#N)C2C[C@@]1(C)Oc1ccccc12 (some centres undefined)
Reply text: > 100 µM

Inquiry: Give its TGI value. Item: "Cc1cccc(Cl)c1NC(=O)c1cccc([N+](=O)[O-])c1O"
Reply text: > 100 µM
